- tgt: Large T antigen (Simian virus 40, UniProt P03070)
- Sequence (P03070 whole entry): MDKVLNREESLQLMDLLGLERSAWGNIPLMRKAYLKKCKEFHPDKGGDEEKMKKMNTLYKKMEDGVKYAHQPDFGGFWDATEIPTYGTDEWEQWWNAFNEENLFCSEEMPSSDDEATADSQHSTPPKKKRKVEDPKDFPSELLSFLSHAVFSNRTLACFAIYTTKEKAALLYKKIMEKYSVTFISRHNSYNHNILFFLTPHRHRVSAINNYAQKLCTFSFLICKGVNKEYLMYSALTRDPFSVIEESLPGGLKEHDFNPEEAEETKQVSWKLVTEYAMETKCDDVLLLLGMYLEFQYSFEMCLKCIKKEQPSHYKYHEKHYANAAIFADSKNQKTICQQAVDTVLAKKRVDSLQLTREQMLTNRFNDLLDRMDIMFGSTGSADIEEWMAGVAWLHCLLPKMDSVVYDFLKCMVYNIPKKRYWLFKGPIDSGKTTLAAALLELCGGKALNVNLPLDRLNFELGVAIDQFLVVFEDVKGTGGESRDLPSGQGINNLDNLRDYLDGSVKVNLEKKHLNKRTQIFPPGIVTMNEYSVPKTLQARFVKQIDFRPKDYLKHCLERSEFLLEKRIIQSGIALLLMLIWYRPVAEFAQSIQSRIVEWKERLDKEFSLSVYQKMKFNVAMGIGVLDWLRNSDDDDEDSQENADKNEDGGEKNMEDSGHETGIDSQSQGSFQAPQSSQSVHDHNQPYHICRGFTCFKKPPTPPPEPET
- Type: functional, Betapolyomavirus macacae
Active and inactive are the calls of the source.

{"test.smiles": "N#C/C(=C\\c1ccc(O)c(O)c1)C(=O)N1CCc2ccccc21", "IC50": "11.9 µM (active)"}
{"test.smiles": "CN(C)c1ccc(NC(=O)CSc2nnc(-c3ccco3)c(-c3ccco3)n2)cc1", "IC50": "6.98 µM (active)"}
{"test.smiles": "O=C(CCC(=O)N1CCN(c2ccc(O)cc2)CC1)c1cccs1", "IC50": "5.54 µM (active)"}
{"test.smiles": "Cc1cc(C)n2nc(C(=O)N/N=C/c3ccc(O)cc3)nc2n1", "IC50": "43.9 µM (active)"}
{"test.smiles": "c1cncc(CNc2ccc3c(c2)OCO3)c1", "IC50": "25.4 µM (active)"}

====

Measurement record for Cytochrome P450 3A4 (Homo sapiens, UniProt P08684); quantity recorded: AC50.
Activity calls are given as the source filed them.

{"molecule": "O=C(Nc1nnc(C2CC2)s1)c1ccncc1", "AC50": "14.1 µM (inconclusive)"}
{"molecule": "COc1ccc(C(=O)Nc2scc(-c3ccc(Cl)cc3Cl)c2C(N)=O)cc1", "AC50": "28.2 µM (inconclusive)"}
{"molecule": "Cc1noc(C)c1C(=O)N1CCC2(CCCN(Cc3nccs3)C2)CC1", "AC50": "12.6 µM (inconclusive)"}
{"molecule": "N#Cc1cccc(-c2nc3cnc(N4CCNCC4)nc3n(C3CC3)c2=O)c1", "AC50": "20 µM (inconclusive)"}
{"molecule": "Fc1ccccc1OCCCCCCN1CCCC1", "AC50": "17.8 µM (inconclusive)"}
{"molecule": "O=c1c(-c2ccc(F)cc2)nc2cnc(N3CCOCC3)nc2n1Cc1cccs1", "AC50": "15.8 µM (inconclusive)"}
{"molecule": "CN=C(S)Nc1ccc2nc(C)c(C)nc2c1", "AC50": "17.8 µM (inconclusive)"}
{"molecule": "Cc1noc(C)c1-c1nccc(N(C)Cc2ccco2)n1", "AC50": "25.1 µM (inconclusive)"}
{"molecule": "O=C(N/N=C/c1cccc(F)c1)c1csc2c1CCCC2", "AC50": "15.8 µM (inconclusive)"}
{"molecule": "CCOC(=O)CSC1=NC(=O)/C(=C\\c2ccc(OC(C)=O)cc2)S1", "AC50": "14.1 µM (inconclusive)"}
{"molecule": "COc1ccc(S(=O)(=O)N2Cc3ccccc3CC2C(=O)Nc2nccs2)cc1 (stereo unspecified)", "AC50": "3.55 µM (active)"}

====

- experimental.protocol: blockers of CRF-binding protein–CRF-R2 complex – cell-based, uHTS hits, 384-well, dose response (AID 651639)
- Assay type: functional, Homo sapiens
- measurement.conditions: read-out: IC50_Mean
Activity calls are given as the source filed them.

{"molecule": "O=C(COC(=O)c1cnc(Cl)c(Cl)c1)NCCC1=CCCCC1", "IC50": "7.15 µM (active)"}
{"molecule": "COC(=O)C(NC(=O)c1ccc(OC)cc1)(Nc1ncc(S(=O)(=O)c2ccc([N+](=O)[O-])cc2)s1)C(F)(F)F (centres undefined)", "IC50": "2.58 µM (active)"}
{"molecule": "Brc1ccccc1-c1nnc(CSc2nnnn2-c2ccccc2)o1", "IC50": "1.36 µM (active)"}
{"molecule": "CCOC(=O)c1c(NC(=O)c2c(Br)cnn2C)c(C#N)nn1-c1ccccc1", "IC50": "18.4 µM (active)"}

====

- tgt: High affinity choline transporter 1 (Homo sapiens)
- Sequence (Q9GZV3 whole entry): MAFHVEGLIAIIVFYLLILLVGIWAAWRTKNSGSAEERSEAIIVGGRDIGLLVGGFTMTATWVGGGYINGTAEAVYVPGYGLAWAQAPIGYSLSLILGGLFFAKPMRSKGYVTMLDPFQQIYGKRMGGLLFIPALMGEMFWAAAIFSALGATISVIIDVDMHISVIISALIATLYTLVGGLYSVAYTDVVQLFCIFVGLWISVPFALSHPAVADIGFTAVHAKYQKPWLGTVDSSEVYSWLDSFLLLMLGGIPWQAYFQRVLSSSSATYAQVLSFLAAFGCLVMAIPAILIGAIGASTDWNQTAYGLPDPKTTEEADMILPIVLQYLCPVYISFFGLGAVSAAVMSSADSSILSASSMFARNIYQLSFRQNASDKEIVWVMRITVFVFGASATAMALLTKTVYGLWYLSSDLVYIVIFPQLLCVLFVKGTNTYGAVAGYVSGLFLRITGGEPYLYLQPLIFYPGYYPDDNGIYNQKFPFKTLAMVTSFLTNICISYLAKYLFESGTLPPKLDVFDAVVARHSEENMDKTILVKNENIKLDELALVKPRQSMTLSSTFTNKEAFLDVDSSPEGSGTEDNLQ
- experimental.protocol: human choline transporter blockers, potency – cell-based, 5-point CRC, membrane potential dye, dose response (AID 504840)
- Format: functional
Activity calls are given as the source filed them.
property.label: IC50

{"compound": "CC(=O)Nc1ccc(Nc2cc(C)c3ccccc3n2)cc1", "tgt": "High affinity choline transporter 1 (Homo sapiens)", "measurement": "11.2 µM (active)"}
{"compound": "N#C/C(=N\\Nc1ccc(Cl)cc1)C(N)=S", "tgt": "High affinity choline transporter 1 (Homo sapiens)", "measurement": "5.01 µM (active)"}
{"compound": "Cc1ccc(C(C)N=C(S)NC2CCCCC2)cc1C (centres undefined)", "tgt": "High affinity choline transporter 1 (Homo sapiens)", "measurement": "8 µM (active)"}
{"compound": "COc1cc2c(cc1OC)-c1cc(N3CCCc4ccccc43)nc(=O)n1CC2", "tgt": "High affinity choline transporter 1 (Homo sapiens)", "measurement": "13.2 µM (active)"}

====

- tgt: Streptokinase A (Streptococcus pyogenes serotype M1)
- Sequence (P10520 whole entry): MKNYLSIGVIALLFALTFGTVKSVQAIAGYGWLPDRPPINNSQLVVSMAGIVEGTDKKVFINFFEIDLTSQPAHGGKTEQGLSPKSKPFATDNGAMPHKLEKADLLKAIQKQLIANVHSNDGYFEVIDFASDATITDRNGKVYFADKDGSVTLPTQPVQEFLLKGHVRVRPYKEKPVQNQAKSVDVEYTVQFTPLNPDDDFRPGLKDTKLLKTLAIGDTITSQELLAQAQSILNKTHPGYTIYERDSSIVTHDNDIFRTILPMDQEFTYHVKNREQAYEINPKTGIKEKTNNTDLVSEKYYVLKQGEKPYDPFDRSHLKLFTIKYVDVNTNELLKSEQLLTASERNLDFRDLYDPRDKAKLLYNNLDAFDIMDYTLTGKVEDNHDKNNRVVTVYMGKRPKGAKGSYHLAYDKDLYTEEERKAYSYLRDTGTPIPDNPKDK
- experimental.protocol: viability-normalized secreted streptokinase activity reduction – plasminogen activation absorbance, OD405, dose response (AID 1914);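 note: secreted streptokinase activity via plasminogen activation per viability signal from cell pellet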
- Type: functional, Streptococcus pyogenes M1 GAS
Active and inactive are the calls of the source.
property.label: EC50

{"compound": "CCCCCCC(=O)NN/C=C1/C(=O)NC(=S)N(CCCC)C1=O", "tgt": "Streptokinase A (Streptococcus pyogenes serotype M1)", "measurement": "> 150 µM (not active)"}
{"compound": "O=C(Nc1ccccc1C(=O)O)c1cccc(NC(=O)c2ccc(Br)o2)c1", "tgt": "Streptokinase A (Streptococcus pyogenes serotype M1)", "measurement": "6.41 µM (active)"}
{"compound": "O=c1/c(=C\\c2cccc(O)c2)sc2nc(-c3ccccc3)c(-c3ccccc3)n12", "tgt": "Streptokinase A (Streptococcus pyogenes serotype M1)", "measurement": "4.22 µM (active)"}
{"compound": "COc1ccc(NC(=O)C(OC(=O)c2cnc(C)cn2)c2ccccc2)cc1Cl (stereo not given)", "tgt": "Streptokinase A (Streptococcus pyogenes serotype M1)", "measurement": "> 150 µM (not active)"}
{"compound": "CCCCn1c(=O)c(C(=O)NCc2ccccc2)c(O)c2ccccc21", "tgt": "Streptokinase A (Streptococcus pyogenes serotype M1)", "measurement": "6.35 µM (active)"}
{"compound": "CC(C)/N=c1\\cc2n(-c3ccc(Cl)cc3)c3ccccc3nc-2cc1Nc1ccc(Cl)cc1", "tgt": "Streptokinase A (Streptococcus pyogenes serotype M1)", "measurement": "2.28 µM (active)"}
{"compound": "O=C(NNC(=O)c1cc(-c2ccc(Cl)cc2Cl)nc2ccccc12)Nc1ccccc1", "tgt": "Streptokinase A (Streptococcus pyogenes serotype M1)", "measurement": "20.4 µM (active)"}
{"compound": "O=S(=O)(NC(=NCc1ccccc1)c1ccccc1)c1ccc(Br)cc1", "tgt": "Streptokinase A (Streptococcus pyogenes serotype M1)", "measurement": "33.4 µM (active)"}
{"compound": "CC(C)(C)[C@H]1CCC(=O)N([C@H](CSc2ccccc2)Cc2ccccc2)CC1", "tgt": "Streptokinase A (Streptococcus pyogenes serotype M1)", "measurement": "23.2 µM (active)"}
{"compound": "O=C(/C=C/c1ccccc1)NC(NC(=S)Nc1ccc(Cl)cc1)C(Cl)(Cl)Cl (stereo not given)", "tgt": "Streptokinase A (Streptococcus pyogenes serotype M1)", "measurement": "> 150 µM (not active)"}

====

- tgt: Paired box protein Pax-8 (Homo sapiens, UniProt Q06710)
- Sequence (Q06710 whole entry): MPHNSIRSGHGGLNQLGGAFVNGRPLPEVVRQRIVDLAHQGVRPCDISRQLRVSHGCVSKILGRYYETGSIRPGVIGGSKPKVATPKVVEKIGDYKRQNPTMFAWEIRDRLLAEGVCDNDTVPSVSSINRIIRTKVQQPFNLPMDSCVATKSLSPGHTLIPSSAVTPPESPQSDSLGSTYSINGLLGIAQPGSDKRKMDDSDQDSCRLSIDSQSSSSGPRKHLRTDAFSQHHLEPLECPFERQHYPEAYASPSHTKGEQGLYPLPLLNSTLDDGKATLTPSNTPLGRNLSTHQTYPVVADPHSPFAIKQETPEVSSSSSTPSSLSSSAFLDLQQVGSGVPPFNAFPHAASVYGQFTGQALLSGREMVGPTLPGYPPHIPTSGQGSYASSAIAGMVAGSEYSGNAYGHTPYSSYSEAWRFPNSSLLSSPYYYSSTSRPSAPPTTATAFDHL
- experimental.protocol: PAX8 transcriptional activity inhibition in RMG-I – RMG-I cells, luciferase, cherry-pick, dose response (AID 687027);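 note: luciferase reporter driven by Pax8 target thyroperoxidase promoter measured by SteadyGlo luminescence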
- Format: functional, cell-based
Calls of active or inactive are those of the source.
property.label: AC50

{"molecule": "C[C@@H]1CN([C@@H](C)CO)C(=O)c2cc(NC(=O)Nc3ccc(C(F)(F)F)cc3)ccc2O[C@@H](C)CCCCO[C@@H]1CN(C)Cc1ccccc1", "measurement": "9.49 µM (active)"}
{"molecule": "COc1cc(-c2cnc3c(NC=O)cc(-c4ccccc4)cn23)cc(OC)c1OC", "measurement": "2.79 µM (active)"}
{"molecule": "C[C@@H]1CCCCO[C@@H](CN(C)C(=O)Nc2ccc(F)cc2)[C@H](C)CN([C@H](C)CO)C(=O)c2cc(NS(=O)(=O)c3ccc(Cl)cc3)ccc2O1", "measurement": "6.23 µM (active)"}
{"molecule": "Oc1ccc(C[C@H]2CNC(=S)N2CC2CCCN2C[C@H](Cc2ccc(O)cc2)N2C[C@H](Cc3ccccc3)N(CC3CCCCCC3)C2=S)cc1 (stereo partly drawn)", "measurement": "9.86 µM (active)"}
{"molecule": "N#Cc1nc(NCC(F)F)nc(Nc2cc(F)cc(F)c2)n1", "measurement": "5.01 µM (active)"}
{"molecule": "C[C@@H]1CCCCO[C@@H](CN(C)Cc2ccc3c(c2)OCO3)[C@@H](C)CN([C@@H](C)CO)C(=O)c2cc(NC(=O)Nc3ccc(C(F)(F)F)cc3)ccc2O1", "measurement": "8.56 µM (active)"}
{"molecule": "C[C@H](CO)N1C[C@H](C)[C@H](CN(C)Cc2ccc(Cl)c(Cl)c2)OCCCC[C@H](C)Oc2ccc(NC(=O)NC3CCCCC3)cc2C1=O", "measurement": "11.7 µM (active)"}
{"molecule": "CCSc1nsc(NC(=O)Nc2cccc(F)c2)n1", "measurement": "5.73 µM (active)"}
{"molecule": "O=C(CCc1ccc(S(=O)(=O)NCc2ccccc2)cc1)NCc1cccnc1", "measurement": "41.5 µM (active)"}
{"molecule": "COc1cccc(-c2ccc([C@H]3[C@@H](CO)N(C(=O)Cc4ccccc4)[C@H]3C#N)cc2)c1", "measurement": "19.5 µM (active)"}
{"molecule": "COc1ccc(S(=O)(=O)Nc2ccc3c(c2)C(=O)N([C@H](C)CO)C[C@@H](C)[C@@H](CN(C)Cc2ccc(C(F)(F)F)cc2)OCCCC[C@H](C)O3)cc1", "measurement": "3.43 µM (active)"}
{"molecule": "Cc1ccccc1-c1ccc2c(c1)O[C@H](CN(C)C(=O)Nc1ccc(C(F)(F)F)cc1)[C@H](C)CN([C@H](C)CO)S2(=O)=O", "measurement": "9.06 µM (active)"}
{"molecule": "O=C(Nc1ccc(F)cc1)N1CC(=O)N2[C@@H](CO)[C@H](c3ccc(-c4ccc(F)cc4)cc3)[C@@H]2C1", "measurement": "6.32 µM (active)"}
